Provenance of the data: patent US20250250357A1

System name: T1, human MSLN-FL-his protein (human, UniProt Q13421 296-580)
T1 construct: also called human MSLN full-length protein; hMSLN-FL-his; not shown: His tag
T1 sequence (Q13421 other isoform, or with tags, fused parts or gaps): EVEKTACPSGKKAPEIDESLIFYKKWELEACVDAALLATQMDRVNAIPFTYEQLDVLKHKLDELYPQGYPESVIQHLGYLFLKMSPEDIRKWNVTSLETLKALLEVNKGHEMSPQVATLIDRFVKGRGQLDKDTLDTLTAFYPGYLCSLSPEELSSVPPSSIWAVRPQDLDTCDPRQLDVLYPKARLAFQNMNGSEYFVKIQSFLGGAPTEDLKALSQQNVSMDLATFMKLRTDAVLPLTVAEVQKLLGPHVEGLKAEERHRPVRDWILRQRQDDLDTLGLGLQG
Assay overview: ELISA, coated MSLN full-length;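 also: binding of chimeric antibodies to plate-bound antigen, read by TMB colour after acid stop, antibody incubated 2 h at 37 °C, negative control antibody run alongside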
Answer each item with its documented OD450 at 100 nM.
Give bare numbers, in OD450.

{"columns": ["Binder", "Unit of measurement", "Observed result"],
 "data": [
  ["S009-F2.47.1 (antibody, human IgG1, kappa, V domains shown, Human-murine chimeric antibody, human IgG1/kappa constant regions) VH: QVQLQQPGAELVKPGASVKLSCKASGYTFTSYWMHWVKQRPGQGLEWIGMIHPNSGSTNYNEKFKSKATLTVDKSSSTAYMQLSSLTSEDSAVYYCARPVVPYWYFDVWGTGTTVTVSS VL: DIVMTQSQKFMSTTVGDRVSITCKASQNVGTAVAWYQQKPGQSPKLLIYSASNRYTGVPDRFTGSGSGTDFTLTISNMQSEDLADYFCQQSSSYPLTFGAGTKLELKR", "OD450", 2.57],
  ["S009-F2-56.12 (antibody, human IgG1, kappa, V domains shown, Human-murine chimeric antibody, human IgG1/kappa constant regions) VH: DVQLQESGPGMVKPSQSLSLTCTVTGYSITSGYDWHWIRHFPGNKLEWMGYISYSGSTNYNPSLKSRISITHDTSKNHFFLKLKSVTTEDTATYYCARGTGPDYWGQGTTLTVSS VL: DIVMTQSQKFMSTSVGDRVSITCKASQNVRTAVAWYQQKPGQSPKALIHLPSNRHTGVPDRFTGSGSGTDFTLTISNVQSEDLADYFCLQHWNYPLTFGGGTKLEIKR", "OD450", 0.4],
  ["S009-F2.38.12 (antibody, human IgG1, kappa, V domains shown, Human-murine chimeric antibody, human IgG1/kappa constant regions) VH: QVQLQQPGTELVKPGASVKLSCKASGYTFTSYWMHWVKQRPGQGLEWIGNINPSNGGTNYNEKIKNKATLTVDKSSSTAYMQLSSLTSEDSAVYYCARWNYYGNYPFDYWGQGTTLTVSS VL: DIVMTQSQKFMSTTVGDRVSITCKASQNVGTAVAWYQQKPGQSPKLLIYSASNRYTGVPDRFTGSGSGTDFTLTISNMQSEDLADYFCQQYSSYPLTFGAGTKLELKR", "OD450", 2.57],
  ["S009-F2.13.3 (antibody, human IgG1, kappa, V domains shown, Human-murine chimeric antibody, human IgG1/kappa constant regions) VH: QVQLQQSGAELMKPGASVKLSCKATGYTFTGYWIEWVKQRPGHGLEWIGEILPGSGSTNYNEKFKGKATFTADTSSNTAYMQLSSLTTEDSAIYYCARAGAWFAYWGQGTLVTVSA VL: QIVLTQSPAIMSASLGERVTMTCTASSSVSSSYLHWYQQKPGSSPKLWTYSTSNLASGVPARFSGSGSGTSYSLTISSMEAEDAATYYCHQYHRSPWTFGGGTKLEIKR", "OD450", 2.77]
]}

Batch: OD450 at 100 nM for all items listed.
1. S009-F2.58.8 (antibody, human IgG1, kappa, V domains shown, Human-murine chimeric antibody, human IgG1/kappa constant regions) VH: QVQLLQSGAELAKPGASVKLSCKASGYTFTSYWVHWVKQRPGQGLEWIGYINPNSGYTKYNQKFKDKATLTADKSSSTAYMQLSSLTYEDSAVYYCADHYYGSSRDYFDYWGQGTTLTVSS VL: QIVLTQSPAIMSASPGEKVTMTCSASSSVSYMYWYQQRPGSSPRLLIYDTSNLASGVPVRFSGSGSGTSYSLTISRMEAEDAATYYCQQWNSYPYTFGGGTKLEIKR
2. S009-F2.16.10 (antibody, human IgG1, kappa, V domains shown, Human-murine chimeric antibody, human IgG1/kappa constant regions) VH: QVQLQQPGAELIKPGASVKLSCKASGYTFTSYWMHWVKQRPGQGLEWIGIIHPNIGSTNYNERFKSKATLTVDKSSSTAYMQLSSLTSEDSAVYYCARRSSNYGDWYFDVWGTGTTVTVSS VL: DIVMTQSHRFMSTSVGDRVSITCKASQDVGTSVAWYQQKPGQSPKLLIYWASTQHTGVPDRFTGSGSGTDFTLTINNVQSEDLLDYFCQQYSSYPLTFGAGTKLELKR

Result:
[2.87, 2.92]
